- Tested on: NCI-H522 lung
- experimental_protocol: NCI-60 one-dose screen, 48 h (100 = growth as untreated, 0 = no growth, -100 = all killed)
- details: 10 µM unless noted
Compounds without any hit were thinned out: in the full panel of roughly 83,000, 20% have a hit. The source made the active and inactive calls. The calls were made as follows: active = growth percent below 10; inactive = the rest.
readout_type: growth

Solved entries:
Documented growth of "COc1cnc2c(c1)C(=O)c1c-2n(CCCN2CCN(C)CC2)c(=O)c2cc(Cl)ccc12" : 11.7% (inactive)

Documented growth of "CCOC(OCC)c1cnc2nc(NC(C)=O)[nH]c(=O)c2n1" : 98.8% (inactive)

Documented growth of CC(C)(C)[Si](C)(C)OC1[C@@H](O[Si](C)(C)C(C)(C)C)[C@@H](CNC(=O)NC(=O)NC(=O)CCl)O[C@H]1n1cnc2c(NC(=O)Nc3ccccc3)ncnc21 (some centres undefined) : -78.6% (active)

Moving on to another molecule below.
Documented growth of C=CCOC(=O)C1=C(C)NC2=C(C(=O)CCC2)C1c1ccc(F)cc1 (centres undefined) : 82.4% (inactive)
